// data source = PubChem BioAssay

Test: A2780 ovarian cancer cell cytotoxicity, dose response, cytotoxicity control, plate reader, dry powder samples (AID 743046);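 note: 0% = neutral control wells and -100% = cytotoxic reference compound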
Conditions: series mostly up to 35 µM
Entries with a potency or affinity are not part of this list. Active and inactive are the calls of the source. The rule behind the calls is not given here.
Quantity measured: activity change, negative = cytotoxicity

input: Quick check: activity change, negative = cytotoxicity of "C[C@@H]1CCCCO[C@@H](CN(C)C(=O)Nc2ccc(F)cc2)[C@H](C)CN([C@H](C)CO)C(=O)c2cc(NS(=O)(=O)c3ccc(Cl)cc3)ccc2O1" ?
output: inactive

input: Quick check: activity change, negative = cytotoxicity of "C[C@H](CO)N1C[C@H](C)[C@@H](CN(C)Cc2ccc(Cl)c(Cl)c2)Oc2ccc(NC(=O)Nc3ccc(C(F)(F)F)cc3)cc2CC1=O" ?
output: inactive

input: Quick check: activity change, negative = cytotoxicity of "COc1ccc(CN(C)C[C@@H]2OCCCC[C@H](C)Oc3ccc(NS(=O)(=O)c4ccc(C)cc4)cc3C(=O)N([C@H](C)CO)C[C@H]2C)cc1" ?
output: inactive

---

Target: Calmodulin-1 (Homo sapiens)
Experiment: calcium-bound CALM1 binders on microarrays, profiling panel, artefact control for SMM control-protein annotation, biochemical, small-molecule microarray, Cy5-labelled CALM1, plus calcium (AID 1112);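 note: score merges spot fluorescence with signal to noise from triplicate slides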
Conditions: Cy5-CALM1 binding fluorescence, higher = more signal
Quantity measured: composite z-score

input: Quick check: composite z-score of "COc1c(C)cc(-c2cc3c(c(CCc4ccccc4)n2)[Si](C(C)C)(C(C)C)OC3)cc1C" ?
output: -0.381

input: Quick check: composite z-score of CC(C)CCC[C@@H](C)[C@H]1CC[C@@]2(C)C3=C(CC[C@]12C)[C@@]1(C)CC[C@H](OC(=O)CCl)C(C)(C)C1CC3 (stereo partly drawn) ?
output: -0.552

input: Quick check: composite z-score of "COc1ccc([Si](C)(C)[C@@H]2[C@@H](CCn3cc([C@H](O)c4ccccc4)nn3)O[C@]3(C(=O)N(C)c4c(Br)cc(C)cc43)[C@H]2C)cc1" ?
output: 0.0747

input: Quick check: composite z-score of "C=CCN1C(=O)[C@]2(O[C@H](CCn3cc([C@H](O)c4ccccc4)nn3)[C@@H]([Si](C)(C)c3ccc(OC)cc3)[C@@H]2C)c2cc(N3CCOC3=O)ccc21" ?
output: -0.367

input: Quick check: composite z-score of "COC(=O)c1c(CC[C@@H](CO)NC(=O)Nc2ccc(OC)cc2)oc(C(=O)Cc2ccccc2)c1C(=O)OC" ?
output: -0.464

input: Quick check: composite z-score of "CCCCCCC#C[Si](O[C@H](c1ccccc1)c1cn(Cc2ccccc2)nn1)(C(C)C)C(C)C" ?
output: 0.716

input: Quick check: composite z-score of "C=CCNC(=O)[C@H]1[C@@H]2C(=O)O[C@@H](c3ccccc3)[C@@H](c3ccccc3)N2[C@@H](c2ccc(OCCO)cc2)[C@]12C(=O)Nc1ccc(C#CCCO)cc12" ?
output: 0.295

input: Quick check: composite z-score of "COCCCNC(=O)[C@@]1(CCS(=O)(=O)c2ccccc2)N=C(c2ccc(OCCCO)cc2)O[C@H]1c1ccccc1CN=[N+]=[N-]" ?
output: 0.986

---
input: Quick check: composite z-score of "C[N+](C)(C)CCCCNC(=O)[C@@H]1C[C@@H]2C(=O)NCC(=O)N2[C@@H]1c1cccc(OCCO)c1" ?
output: -0.131

input: Quick check: composite z-score of "CO[C@H]1O[C@H](CO)[C@@H](OC(=O)Nc2ccccc2)[C@H](OC(=O)Nc2ccccc2-c2ccccc2)[C@@H]1OC(=O)Nc1ccccc1-c1ccccc1" ?
output: 0.357

input: Quick check: composite z-score of "O=C(NCC(F)(F)F)[C@@H]1c2ccccc2C(=O)N(C2Cc3ccccc3C2)[C@H]1c1ccc(CO)cc1" ?
output: 1.14

input: Quick check: composite z-score of CC(=O)OC(C/C=C\B1OC(C)(C)C(C)(C)O1)c1ccccc1 (stereo not drawn) ?
output: -0.664

input: Quick check: composite z-score of "CCOC(=O)C[C@H]1[C@H](OC(=O)c2ccc(-c3ccccc3)cc2)[C@@H](NC(=O)C2CCCCC2)c2cc(OCCCO)ccc2N1C(=O)c1ccc2ccccc2n1" ?
output: 0.854

input: Quick check: composite z-score of "CO[C@H]1O[C@H](CO)[C@@H](OC(=O)Nc2ccccc2)[C@H](OC(=O)Nc2ccc3c(c2)OCO3)[C@H]1OC(=O)Nc1ccc2c(c1)OCO2" ?
output: -0.617
